Cited source: PubChem BioAssay (NCI)

test system: NCI-H522 lung; test: NCI tumour cell line growth inhibition, 48 h
Would you please tag the item Criterion met when its TGI is 30 µM or above, and Criterion not met when it is below?

The examples below pair each entry with its known result.
1. Cc1nc2ccccc2n1COC(Cn1ccnc1)c1ccc(Cl)cc1Cl (stereo not given) :: Criterion met
2. OC1(c2cccs2)c2cccc(Cl)c2C(O)(c2cccs2)c2c(Cl)cccc21 (stereo not given) :: Criterion met
3. COc1ccc2[nH]cc(CCNC(=O)[C@H](Cc3ccccc3)NC(=O)[C@@H](NCC(F)(F)F)C(C)C)c2c1 :: Criterion met
4. COc1ccc2n[se]nc2c1 :: Criterion met
5. NC(N)=N/N=C/c1c(-c2ccc(Cl)cc2)nc2sccn12 :: Criterion not met
6. C=C1c2ccccc2C(=O)c2c1c1c(C(=O)OC)c(O)ccc1n2Cc1ccccc1 :: Criterion not met
7. CNS(=O)(=O)NN(C)S(=O)(=O)c1ccccc1 :: Criterion met
8. COC(=O)c1nc(-c2ccccc2)oc1S(=O)(=O)Cc1ccccc1 :: Criterion not met
9. COc1ccc2c3c1O[C@]1(C)C34CCN(C)C(C2)C42C=C[C@@]1(OC)c1c(O)ccc(O)c12 :: Criterion met

IN: Could you verify whether the entry O=S1(=O)N=C(SCc2ccccc2)N(c2ccccc2)c2ccncc21 shows TGI of no less than 30 µM?
OUT: Criterion met

----------
tested on: MALME-3M melanoma; assay: NCI tumour cell line growth inhibition, 48 h
READOUT NAME: TGI

For orientation, consider the following solved cases.
1. COc1cc(CSc2nc3ccc(C)cc3c(=O)n2-c2ccccc2)cc(OC)c1OC :: > 100 µM
2. O=C(Nc1ccc(Cl)cc1)c1cc2cc(N=Nc3ccccc3Cl)ccc2oc1=O :: 48.3 µM
3. C=CCN1C(=O)C=C(c2ccccc2)n2ncc3cccc1c32 :: > 100 µM
4. CCOc1cc(NC(C)=O)ccc1C(=O)NN1C(=O)C(Cl)C1c1ccccc1 (stereo not drawn) :: 25.2 µM

IN: I'm curious: which TGI was measured for C(#Cc1ccccc1C#Cc1cccs1)c1cccs1 tested on MALME-3M melanoma?
OUT: > 100 µM

IN: Continue with COc1c(C)c2c(c(O)c1C/C=C(\C)CCC(=O)O)C(=O)OC2
OUT: > 100 µM

----------
test system: MDA-MB-231 breast; assay: NCI tumour cell line growth inhibition, 48 h
READOUT NAME: TGI

1. COc1ccc(-c2nc(-c3nc4ccc(OC)cc4[nH]3)c3ccccn23)cc1 :: > 100 µM
2. COc1ccc(-c2c[nH]c(C(=O)O)c2-c2cc(OC)c(OC)c(OC)c2)cc1 :: > 100 µM
3. C=C1c2ccccc2C(=O)c2c1c1c(C(=O)OC)c(O)ccc1n2Cc1ccccc1 :: 1.54 µM
4. C=CCN1C(=O)C=C(c2ccccc2)n2ncc3cccc1c32 :: > 100 µM
5. CCOC(CN(C)C(=O)Nc1cccc2ccccc12)OCC :: > 10 µM

IN: I'm curious: which TGI was measured for CC(=O)NC1C(OCc2ccccc2)OC(CO)C(O)C1OC(C)C(=O)NC(C(=O)N[C@@H](CCC(=O)NCCNCCNc1c2ccccc2nc2cccc([N+](=O)[O-])c12)C(N)=O)C(C)C (some centres undefined) tested on MDA-MB-231 breast?
OUT: > 100 µM

IN: Continue with O=c1oc2ccc3ccccc3c2cc1-c1cn2ccccc2n1
OUT: > 100 µM

IN: Continue with [N-]=[N+]=Nc1ccccc1C(=O)N1C(=O)c2ccccc2C(=O)N(C(=O)c2ccccc2N=[N+]=[N-])c2ccccc21
OUT: > 100 µM

IN: Continue with C=CCNC(=O)NC(=O)CSC1=NNC2(C(=O)N1)c1ccccc1-c1ccccc12
OUT: > 10 µM

----------
tested on: LOX IMVI melanoma; assay: NCI tumour cell line growth inhibition, 48 h
Here the recorded GI50 is given for each entry.

For orientation, consider the following solved cases.
1) C=C1CCC2C3(C)COC(c4ccc(N(C)C)cc4)OC3CCC2(C)C1C/C=C1/C(=O)OCC1O (stereo not drawn) :: 1590 nM
2) COC(=O)c1nc(-c2ccccc2)oc1S(=O)(=O)Cc1ccccc1 :: 2880 nM
3) FC(F)(F)c1ccc(Nc2nc(-c3c(C(F)(F)F)nc4ccccn34)cs2)cc1 :: 53.3 nM
4) COc1cc(C(=O)O[C@H](C(=O)NCCCCCNC(=O)[C@@H](OC(=O)c2cc(OC)cc3c(C)cccc23)[C@]2(C)CO2)[C@]2(C)CO2)c2cccc(C)c2c1 :: < 10 nM
5) COc1ccc(-c2cn(-c3cc(OC)c(OC)c(OC)c3)c(SCc3ccccc3)n2)cc1OC :: > 100000 nM

IN: Recorded GI50 of O=C([CH-]C(=O)c1ccccc1)c1ccccc1.O=C([CH-]C(=O)c1ccccc1)c1ccccc1.[La+3].[OH-].[OH3+] , please.
OUT: 13500 nM

IN: Continue with CC(C)(C)n1cc(-c2ccnc(NCCCNS(=O)(=O)c3ccc(C(F)(F)F)cc3)c2)c(-c2cccc(O)c2)n1
OUT: 1720 nM

IN: Continue with C=C(C)C(=O)O[C@H]1CC(=C)[C@@H]2C[C@H](O)[C@](O)(CCl)[C@@H]2[C@H]2OC(=O)C(=C)[C@@H]21
OUT: 1800 nM

IN: Continue with C(#Cc1ccccc1C#Cc1cccs1)c1cccs1
OUT: 23700 nM

IN: Continue with Nc1c(C(=O)c2cccc(-c3ccncc3)c2)cnn1-c1ccc(F)cc1F
OUT: 14300 nM

IN: Continue with CC(C)(C)c1ccc(Oc2nccc(-c3c(-c4ccc(F)cc4)ncn3C3CCNCC3)n2)cc1
OUT: 3430 nM

----------
Here the recorded GI50 is given for each entry.
tested on: HOP-62 NSCLC; test: NCI tumour cell line growth inhibition, 48 h

For orientation, consider the following solved cases.
1. C[C@H]1[C@H](C)CC[C@]2(CO)CC[C@]3(C)C(=CC[C@@H]4[C@@]5(C)CCCNC(C)(C)[C@@H]5CC[C@]43C)[C@H]12 :: 1.81 µM
2. COc1ccc2c(c1)c(=O)oc1cc(OC/C(C)=N\O)ccc12 :: 28.7 µM

IN: I'm curious: which GI50 was measured for COc1ccc(-c2nc(-c3nc4ccc(OC)cc4[nH]3)c3ccccn23)cc1 tested on HOP-62 NSCLC?
OUT: 5.07 µM

----------
tested on: SNB-78 CNS; assay: NCI tumour cell line growth inhibition, 48 h
READOUT NAME: TGI

For orientation, consider the following solved cases.
1) COc1cc(OC(=O)c2ccccc2)cc2c1C(=O)C=CC2=O :: 41.4 µM
2) Cc1ccc(S(=O)(=O)OC2CSS(=O)CC2OS(=O)(=O)c2ccc(C)cc2)cc1 (stereo not given) :: 58.9 µM
3) CC(=O)CC(=O)OC1CC(C)CCC1C(C)C (stereo not given) :: > 100 µM

IN: Recorded TGI of CC1=NN(C(=O)c2ccccc2O)C(=O)/C1=C/c1ccco1 , please.
OUT: > 100 µM

IN: Continue with CC(=O)OC1COC(n2c(O)c(N=NC(N)=S)c3cc(Br)ccc32)C(OC(C)=O)C1OC(C)=O (stereo not given)
OUT: > 100 µM

----------
Here the recorded TGI is given for each entry.
tested on: SK-OV-3 ovarian; experiment: NCI tumour cell line growth inhibition, 48 h

For orientation, consider the following solved cases.
1. CNC1=C(C)C(=O)C(=O)C([C@H](C)CCC=C(C)C)=C1O :: 83.3 µM
2. COc1ccc2c(c1)c(=O)oc1cc(OC/C(C)=N\O)ccc12 :: > 100 µM
3. NC1=C(NC(=O)Cc2ccc(F)cc2)C(=O)c2ccccc2C1=O :: 56.1 µM

IN: Recorded TGI of C/C(=N\NS(=O)(=O)c1ccc(C)cc1)C(CN1CCCCC1)C(c1ccccc1)c1c(O)c2ccccc2oc1=O (configuration not stated) , please.
OUT: > 100 µM

IN: Continue with CCSc1[nH]c(NC(=S)NC(=O)c2ccccc2Cl)c(C(N)=O)c1C(N)=O
OUT: > 10 µM

IN: Continue with O=[N+]([O-])c1cc(C(F)(F)F)cc([N+](=O)[O-])c1CCl
OUT: 14.6 µM

IN: Continue with c1ccc2[nH]c(-c3ccc(-c4nccc5c4[nH]c4ccccc45)cc3)nc2c1
OUT: 15.9 µM

IN: Continue with O=C(Nc1ccc(Cl)cc1)NS(=O)(=O)c1coc2cc(F)ccc2c1=O
OUT: > 100 µM

IN: Continue with OC(c1ccccc1)(c1ccccc1)c1ccncc1
OUT: > 100 µM

----------
test system: DMS 114 small cell lung; assay: NCI tumour cell line growth inhibition, 48 h
Here the recorded TGI is given for each entry.

1. O=C(CSc1nnc(-c2ccc(N=Cc3ccc(Cl)cc3)cc2)o1)Nc1ccccc1[N+](=O)[O-] :: > 100 µM

IN: Recorded TGI of Cc1cc(O)c(C(C)C)cc1S(=O)(=O)O (tested in a mixture with another compound) , please.
OUT: > 100 µM

IN: Continue with C[C@]12C=CC(=O)C=C1CC[C@@H]1[C@@H]2CC[C@]2(C)OC(=O)CC[C@@H]12
OUT: > 500 µM

IN: Continue with Cn1cc2ccccc2c1-c1nc(F)nc(F)n1
OUT: > 100 µM

IN: Continue with COc1ccc2c3c1O[C@]1(C)C34CCN(C)C(C2)C42C=C[C@@]1(OC)c1c(O)ccc(O)c12
OUT: > 100 µM
